System: MCF7 breast
experiment_notes: NCI tumour cell line growth inhibition, 48 h; in the data active = GI50 below about 0.43 µM; inactive = the rest
The reply should be one of these categories: active, inactive

Recorded results for 6 molecules are shown here.
# molecule, classification
rows = [
    ("O=C(Nc1sc2c(c1C(=O)O)CCCC2)c1ccco1", "inactive"),
    ("CCCC(=O)O[C@]1(C)CC[C@@H]2[C@H]3[C@@H]1[C@@H]1C[C@@](C)(O)[C@H](OC)CC[C@](C)(OC(=O)[C@@H]2C)[C@H]3O1", "inactive"),
    ("C[C@@H]1C[C@@H]([C@H](O)CC2CC(=O)NC(=O)C2)C(=O)[C@@H](C)C1", "active"),
    ("CC(C)C[C@@H](N)[C@@H](O)C(=O)N[C@H](C(=O)N[C@H](C(=O)N[C@@H](CC(=O)O)C(=O)O)C(C)C)C(C)C", "inactive"),
    ("COc1ccc(-n2cc(-c3ccc(OC)c(OC)c3)[nH]c2=O)cc1", "inactive"),
    ("O=c1[nH]c(C2CCCN2)nc2c1oc1ccc(Cl)cc12 (centres undefined)", "inactive"),
]

[Q] I would be grateful if you could indicate the recorded call for OCc1ccc(N(Cc2ccc(F)cc2)Cc2ccc(F)cc2)cc1Cl .
[A] inactive

[Q] I would be grateful if you could indicate the recorded call for COc1ccc2c(c1)C(=O)c1c-2c(OCCCN(C)C)nc2cc(Br)ccc12 .
[A] inactive

[Q] I would be grateful if you could indicate the recorded call for CCOC(=O)NC(=S)N(CC(=O)c1cc(OC)c(OC)c(OC)c1)c1ccc(Cl)cc1 .
[A] inactive
